biological target: human LSD1 (Homo sapiens (Human)); experiment: Experiment 1B: in vitro LSD1 enzyme activity, enzyme-coupled fluorescence (HRP/Amplex Red), H3(1-21)K4me2 peptide 10 μM (Reaction Biology); format: biochemical; conditions: histone H3(1-21)K4me2 peptide 10 μM
Where a name gives a salt, the structure may show the parent alone.
// NB: equality with 30 nM counts as Criterion not met; only IC50 strictly below is Criterion met

{"columns": ["COMPOUND", "CLASS_ASSIGNMENT"],
 "data": [
  ["CC(C)(CO)n1cc2cc(-c3sc(C(=O)N4CCCNCC4)cc3-c3ccc(C#N)c(F)c3)ccc2n1 [Hydrochloride of compound 102]", "Criterion not met"]
]}

**Q:** Criterion: IC50 strictly below 30 nM. Is it met by N#Cc1ccc(-c2cc(C(=O)N3CCC[C@@H](N)C3)sc2-c2ccc(NCC3(O)CCC3)c(F)c2)cc1F [Hydrochloride of compound 120] ?
**A:** Criterion met
